# study-system: Ubiquitin carboxyl-terminal hydrolase 30 (Homo sapiens, UniProt Q70CQ3)
# Sequence (Q70CQ3 whole entry): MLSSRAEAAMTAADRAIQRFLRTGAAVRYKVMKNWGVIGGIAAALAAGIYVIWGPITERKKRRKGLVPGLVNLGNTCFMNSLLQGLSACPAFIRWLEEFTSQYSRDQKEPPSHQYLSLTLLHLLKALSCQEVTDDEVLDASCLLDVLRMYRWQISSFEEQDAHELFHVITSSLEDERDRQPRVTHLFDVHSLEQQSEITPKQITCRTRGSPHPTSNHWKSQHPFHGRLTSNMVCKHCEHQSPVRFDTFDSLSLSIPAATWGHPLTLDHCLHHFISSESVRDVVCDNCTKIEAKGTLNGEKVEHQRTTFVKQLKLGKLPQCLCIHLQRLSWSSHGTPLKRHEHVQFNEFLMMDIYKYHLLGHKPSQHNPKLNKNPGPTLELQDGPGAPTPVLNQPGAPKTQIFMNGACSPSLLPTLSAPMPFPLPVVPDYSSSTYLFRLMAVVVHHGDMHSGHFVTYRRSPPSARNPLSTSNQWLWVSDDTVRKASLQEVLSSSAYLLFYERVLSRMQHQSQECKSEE
# run-description: Inhibition of untagged human USP30 catalytic domain (57 to 517 residues) expressed in Escherichia coli using TAMRA labeled ubiquitin peptide as substrate preincubated for 30 min followed by substrate addition and measured after 2 hrs by fluorescence polarization assay
pIC50: −log10 of the molar value.
For each record, write down the corresponding pIC50.

>>> observed_result("N#Cc1ccc(NC(=O)N2CC[C@@H]3CN(C#N)C[C@@H]32)c(F)c1")
"6.00 to 7.00"

Just so you know, measured pIC50 for `N#CN1C[C@H]2CCN(C(=O)Nc3cc(Cl)ccc3F)[C@H]2C1` came out at 6.00 to 7.00
